Tested on: HCT-116
Experiment: Antiproliferative activity against human HCT116 cells after 72 hrs by SRB assay
Assay type: functional, cell-based
Test Conditions: HCT-116, 72 h
Documented pIC50 across a set of compounds
Keep it numeric: pIC50 is minus log10 of the concentration in mol/L.

The following compounds have reported results that may help.
COc1ccc2c(c1)c(NCCCN)c1c3ccccc3nc-1n2C    6.81
Cn1c2nc3ccccc3c-2c(NCCCN)c2ccccc21    6.52
CN1CCCN(c2c3c4ccccc4nc-3n(C)c3ccc(Br)cc23)CC1    5.94
Cn1c2nc3ccccc3c-2c(N2CCOCC2)c2ccccc21    5.75
Cn1c2nc3ccccc3c-2c(NCCCN)c2cc(Br)ccc21    6.56
CN1CCCN(c2c3c4ccccc4nc-3n(C)c3ccc(Cl)cc23)CC1    5.76
Cn1c2nc3ccccc3c-2c(NCCCCN)c2cc(Br)ccc21    6.68
Cn1c2nc3ccccc3c-2c(NCCCO)c2cc(Br)ccc21    6.00
Cn1c2ccccc2c2c(NCCN)c3cc(Cl)ccc3nc21    5.16
Cn1c2nc3ccccc3c-2c(NCCCO)c2ccccc21    6.15

Known value: HCT-116 pIC50 of the compound `COc1ccc2c(c1)c(NCCCCN)c1c3ccccc3nc-1n2C` equals 6.18

Entry `Cn1c2ccccc2c2c(NCCCN)c3cc(Cl)ccc3nc21` ; assay system HCT-116; pIC50 recorded at 5.35
